# METHOD DESCRIPTION: chemical genetic growth profiling, strain panel (AID 1159580);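 further: tested at 20 µM; growth read once vehicle control cultures reached saturation at 30 °C; 1 = growth at the plate median or of vehicle wells; lower values mean less growth of the strain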
# CONDITION PARAMETERS: S. cerevisiae deletion strains, growth OD, locus YDR226W, strain ADK1, hits give low values
Among all 5,500 compounds or so, about 2,000 (36%) were called active. Another 18% or so got no clear call; they are omitted. This is one part of the list.
Field: normalized growth. Provide a value for each of the molecules that follow.

N#C/C(N=Cc1cc(Cl)cc(Cl)c1O)=C(\C#N)N=Cc1cc(Cl)cc(Cl)c1O = 0.925 (inactive)
C/C(=N/NC(N)=S)c1csc(-c2ccccc2)n1 = 0.961 (inactive)
O=C1Nc2ccccc2/C1=C\c1c[nH]c2ccccc12 = 0.84 (active)
O=C(Nc1ccccc1C(=O)O)OCC1c2ccccc2-c2ccccc21 = 0.982 (inactive)
O=C(NNc1cc(C(F)(F)F)cc(C(F)(F)F)c1)c1cnc2n(c1=O)CCS2 = 0.987 (inactive)

# batch size: 5; output normalized growth per entry
1. CC1(C)C=Cc2cc(/C(N)=N\OC(=O)Nc3cccc(C(F)(F)F)c3)ccc2O1
2. N#Cc1ccc2[nH]cc(CCN(Cc3ccccc3)Cc3ccccc3)c2c1
3. FC(F)(F)Oc1ccc(OCc2n[nH]c(=S)n2-c2ccc(Cl)cc2)cc1
4. Cc1cc(Br)c(O)c(/C=N\NC(=S)NC(C)(C)C)c1
5. O=S(=O)(c1cc(Cl)ccc1Cl)N1CCc2ccccc2C1

1: 0.976 (inactive); 2: 0.978 (inactive); 3: 0.98 (inactive); 4: 0.965 (inactive); 5: 0.978 (inactive)

Count: 7. Required value per item: normalized growth.
1. CCn1nc(C)cc1C(=O)Sc1cccc(Br)c1
2. O=C1/C(=C/c2c[nH]c3ccccc23)CSc2ccccc21
3. ONC(=Nc1ccccc1Cl)c1ccccc1Cl
4. N/C(=N/OC(=O)c1cnn(-c2ccc([N+](=O)[O-])cc2)c1C(F)(F)F)c1ccc(Cl)cc1
5. COc1ccc(Br)c(C(=O)/C(C#N)=C/c2cccs2)c1
6. N/C(=N/OC(=O)c1ccc([N+](=O)[O-])cc1)c1c(Cl)cccc1Cl
7. FC(F)(F)Sc1ccc(OCc2n[nH]c(=S)n2-c2ccccc2)cc1

["0.925 (inactive)", "0.983 (inactive)", "0.987 (inactive)", "0.982 (inactive)", "0.908 (inactive)", "0.944 (inactive)", "0.981 (inactive)"]

###

# METHOD DESCRIPTION: chemical genetic growth profiling, strain panel (AID 1159580)
# CONDITION PARAMETERS: S. cerevisiae deletion strains, growth OD, locus YML094W, strain GIM5
The campaign covered roughly 5,500 compounds. About 2,000 (36%) were called active. Another 18% or so got no clear call; they are omitted. Cut-off read from the data, not from the text of the source: active = normalized growth mostly below about 0.91 (no sharp cut-off); inconclusive = no clear call, values can overlap the other calls; inactive = mostly above about 0.92. The list shows a part of the results.
The reply should name one outcome from yes (active), no (inactive)

Check out these entries, answers already filled in.
N#Cc1c(Cl)cccc1N1CCC(C(=O)NC(=O)Nc2ccc(Cl)cc2)CC1 = no
O=C(Nc1ccc(Cl)cc1)N1CCN(c2ncccc2C(F)(F)F)CC1 = no
N#Cc1c(Cl)cccc1N1CCCC1 = yes

Now consider the entry below.
What is the recorded call for this compound in the test? `NC(N)=NC(N)=Nc1cc(Cl)cc(Cl)c1`
no

###

Give measured normalized growth for each item. Keep answers brief.
# METHOD DESCRIPTION: chemical genetic growth profiling, strain panel (AID 1159580)
# CONDITION PARAMETERS: S. cerevisiae deletion strains, growth OD, locus YML124C, strain tub3, hits give low values
Among all 5,500 compounds or so, about 2,000 (36%) were called active. Roughly 18% stayed inconclusive and do not appear here. Some of the results follow.
Numbers only.

CC12CCC3C(CCC4(O)CC(O)CCC34/C=N/NC(N)=O)C1(O)CCC2C1=CC(=O)OC1 (stereo unspecified) = 0.986

For every listed record, write down its normalized growth.
1. COc1cc(O)c2c(=O)cc(-c3ccc(O)cc3)oc2c1
2. COC(=O)CC1C(C)(C)C(OC(C)=O)[C@@H]2[C@@H](OC(C)=O)[C@]34O[C@@]2(O)[C@]1(C)C3CC[C@]1(C)C4=CC(=O)O[C@H]1c1ccoc1 (stereo partly specified)
3. C[C@H]1O[C@@H](O[C@H]2[C@@H](O)C[C@H](O[C@H]3[C@@H](O)C[C@H](O[C@H]4CC[C@]5(C)C6C[C@@H](O)[C@]7(C)[C@@H](C8=CC(=O)OC8)CC[C@]7(O)C6CC[C@@H]5C4)O[C@@H]3C)O[C@@H]2C)C[C@H](O)[C@@H]1O (stereo partly specified)
4. C[C@H]1[C@H](C)CC[C@]2(C(=O)O)CC[C@]3(C)C(=CCC4[C@@]5(C)C[C@@H](O)[C@H](O)[C@@](C)(CO)C5[C@H](O)C[C@]43C)[C@H]12 (stereo partly specified)
5. COc1ccc(-c2cc(=O)c3c(O)c(OC)c(O[C@H]4O[C@H](CO[C@@H]5O[C@@H](C)[C@H](O)[C@@H](O)[C@H]5O)[C@@H](O)[C@H](O)[C@H]4O)cc3o2)cc1

1. 1.02
2. 0.997
3. 0.992
4. 0.963
5. 1.02

###

Provide the recorded normalized growth for the entries that follow.
# METHOD DESCRIPTION: chemical genetic growth profiling, strain panel (AID 1159580);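 further: tested at 20 µM; growth read once vehicle control cultures reached saturation at 30 °C; 1 = growth at the plate median or of vehicle wells; lower values mean less growth of the strain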
# CONDITION PARAMETERS: S. cerevisiae deletion strains, growth OD, locus YNL071W, strain lat1, hits give low values
The whole screen tested about 5,500 compounds, of which about 2,000 (36%) were called active. Another 18% or so got no clear call; they are omitted. The list shows a part of the results.
Answers are plain numbers.

Consider the reported normalized growth for these molecules:
COC1CC(OC2CCC3(C)C(CCC4C3CCC3(C)C(C5=CC(=O)OC5)C(OC(C)=O)CC43O)C2)OC(C)C1O (stereo not given) = 1.02
C[C@H]1O[C@@H](O[C@H]2[C@@H](O)C[C@H](O[C@H]3[C@@H](O)C[C@H](O[C@H]4CC[C@]5(C)C6CC[C@]7(C)[C@@H](C8=CC(=O)OC8)CC[C@]7(O)C6CC[C@@H]5C4)O[C@@H]3C)O[C@@H]2C)C[C@H](O)[C@@H]1O (stereo not given in full) = 0.979
NC[C@H]1O[C@H](O[C@H]2[C@H](O)[C@@H](O[C@H]3O[C@H](CO)[C@@H](O)[C@H](N)[C@H]3O)[C@H](N)C[C@@H]2N)[C@H](N)[C@@H](O)[C@@H]1O = 0.998
C[C@H]1O[C@@H](O[C@H]2[C@@H](O)C[C@H](O[C@H]3[C@@H](O)C[C@H](O[C@H]4CC[C@]5(C)C6C[C@@H](O)[C@]7(C)[C@@H](C8=CC(=O)OC8)CC[C@]7(O)C6CC[C@@H]5C4)O[C@@H]3C)O[C@@H]2C)C[C@H](O)[C@@H]1O (stereo not given in full) = 1

What does the record list as normalized growth for C[C@]12CCC3C(CC[C@]4(O)C[C@@H](O)CC[C@]34C=O)[C@@]1(O)CCC2C1=CC(=O)OC1 (stereo not given in full) ?
0.958

###

# METHOD DESCRIPTION: chemical genetic growth profiling, strain panel (AID 1159580);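 further: tested at 20 µM; growth read once vehicle control cultures reached saturation at 30 °C; 1 = growth at the plate median or of vehicle wells; lower values mean less growth of the strain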
# CONDITION PARAMETERS: S. cerevisiae deletion strains, growth OD, locus YNL183C, strain NPR1, hits give low values
In all, about 5,500 compounds went through this assay and about 2,000 (36%) were called active. About 18% were inconclusive and are not listed. This is one part of the list.
MEASURED PROPERTY: normalized growth
Numbers only.

Answered cases to consult:
N#C/C(N=Cc1cc(Cl)cc(Cl)c1O)=C(\C#N)N=Cc1cc(Cl)cc(Cl)c1O = 0.587
O=C(CCCN1CCN(c2ccccn2)CC1)c1ccc(F)cc1 = 0.977
O=C(CCCN1CCC(O)(c2ccc(Cl)cc2)CC1)c1ccc(F)cc1 = 0.971

Provide the reported normalized growth of each entry below, same order.
1. O=C1CC2(CCCC2)CC(=O)N1CCCCN1CCN(c2ncccn2)CC1
2. O=C(CCCN1CCC(O)(c2ccc(Br)cc2)CC1)c1ccc(F)cc1
3. CC(=O)N1CCCC1C(=O)O (stereo unspecified)

1. 0.96
2. 0.902
3. 0.883

###

# METHOD DESCRIPTION: chemical genetic growth profiling, strain panel (AID 1159580);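 further: tested at 20 µM; growth read once vehicle control cultures reached saturation at 30 °C; 1 = growth at the plate median or of vehicle wells; lower values mean less growth of the strain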
# CONDITION PARAMETERS: S. cerevisiae deletion strains, growth OD, locus YKL160W, strain elf1, hits give low values
Among all 5,500 compounds or so, about 2,000 (36%) were called active. Another 18% or so got no clear call; they are omitted. This is one part of the list.
MEASURED PROPERTY: normalized growth
Give bare numbers.

Please report normalized growth for every entry that follows.
1. O=c1c(-c2ccc(O)cc2)coc2c(C3O[C@H](CO)[C@@H](O)[C@H](O)[C@H]3O)c(O)ccc12 (stereo not given in full)
2. C=CCSC[C@@H](N)C(=O)O
3. COc1ccc(-c2cc(=O)c3c(O)c(OC)c(OC)c(OC)c3o2)cc1OC
4. O=c1c2cc(O)c(O)cc2oc2cc(O)c(C3O[C@H](CO)[C@H](O)[C@@H](O)[C@H]3O)c(O)c12 (stereo not given in full)
5. C=CCSSCC=C
6. COc1ccc(-c2cc(=O)c3c(O)c(OC)c(O[C@H]4O[C@H](CO[C@@H]5O[C@@H](C)[C@H](O)[C@@H](O)[C@H]5O)[C@@H](O)[C@H](O)[C@H]4O)cc3o2)cc1
7. COc1c(O)cc2c(c1O)[C@H]1O[C@H](CO)[C@@H](O)[C@H](O)[C@@H]1OC2=O

1: 1.04; 2: 0.985; 3: 0.994; 4: 0.988; 5: 1.01; 6: 0.997; 7: 1.03
